This collection of values is drawn from patent US20210179726A1.

- TARGET_OF_ASSAY: T1, hCD27-muFc (human; mouse, UniProt P26842 20-192)
- T1 construct: range 1-192; Secreted from HEK293, Protein A purified; not shown: mouse IgG1-Fc (muFc), residues 98 to 324 of UniProt P01868
- T1 sequence (looked up): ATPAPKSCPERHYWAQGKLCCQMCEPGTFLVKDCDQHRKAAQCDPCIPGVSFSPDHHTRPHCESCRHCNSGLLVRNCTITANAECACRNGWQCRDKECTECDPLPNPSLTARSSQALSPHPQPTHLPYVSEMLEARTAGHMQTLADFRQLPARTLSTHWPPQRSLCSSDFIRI
- ASSAY_NAME: BLI (Octet K2), antibody on Protein A biosensor, hCD27-muFc in solution
READOUT: koff (s⁻¹)
Just the number please, in s⁻¹, no unit attached.

Use these answered entries as a reference point.
[[record]]
binder = "16647 (antibody, human IgG1, V domains shown, not shown: a dimerising Fc or GST, Humanized m2F11, human IgG1 / kappa) VH: QVELRESGGGLVKPGGSLRLSCAASGFTFSSYAMSWVRQMPGKGLEWVAIIGDGDTYTYYPDSVKGRFTISRDNSKNRLYLQMNSLKSEDTAMYYCVRTRGGPFDYWGQGTTLTVSS VL: EILLTQSPAFMSATPGEKVTITCSASSSVGSMHWYQQKSGQSPRRLIYDTSKLASGVPDRFSGSGSGTDYTLTISSLEAEDAATYYCQQWSSIPPTFGAGTTLELK"
readout = "koff"
measurement_units = "s⁻¹"
endpoint_value = 0.000348

[[record]]
binder = "d14822 (antibody, human IgG1, V domains shown, not shown: a dimerising Fc or GST, Humanized m2F11, human IgG1 / kappa) VH: EVHLQESGGGLVKPGGSLRLSCAASGFTFSSYAMSWVRQTPDKGLEWVAIIGDGDTYTYYPDSVKGRFTISRDNSKNTLYLQMNDLKSEDTAMYYCVRTRGGPFDYWGQGTTLTVSS VL: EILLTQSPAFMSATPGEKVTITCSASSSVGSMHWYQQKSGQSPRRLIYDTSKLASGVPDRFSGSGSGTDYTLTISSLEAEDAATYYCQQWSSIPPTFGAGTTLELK"
readout = "koff"
measurement_units = "s⁻¹"
endpoint_value = 0.000334

[[record]]
binder = "d9419 (antibody, human IgG1, V domains shown, not shown: a dimerising Fc or GST, Humanized m2F11, human IgG1 / kappa) VH: EVHLQESGGALVKPGGSLRLSCAASGFTFSSYAMSWVRQKPEKNLEWVAIIGDGDTYTYYPDSVKGRFTISRDNAKNTLYLQMSDLKSEDTAMYYCVRTRGGPFDYWGQGTTLTVSS VL: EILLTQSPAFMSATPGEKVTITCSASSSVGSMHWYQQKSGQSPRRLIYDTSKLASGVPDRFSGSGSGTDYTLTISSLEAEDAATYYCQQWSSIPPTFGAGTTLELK"
readout = "koff"
measurement_units = "s⁻¹"
endpoint_value = 0.000205


Kindly consider the entry below.
*Q* Which koff value belongs to 9424 (antibody, human IgG1, V domains shown, not shown: a dimerising Fc or GST, Humanized m2F11, human IgG1 / kappa) VH: EVHLQESGGGLVKPGGSLRLSCAASGFTFSSYAMSWVRQTPEKGLEWVAIIGDGDTYTYYPDSVKGRFTISRDNAKNTLYLQMNSLKSEDTAMYYCVRTRGGPFDYWGQGTTLTVSS VL: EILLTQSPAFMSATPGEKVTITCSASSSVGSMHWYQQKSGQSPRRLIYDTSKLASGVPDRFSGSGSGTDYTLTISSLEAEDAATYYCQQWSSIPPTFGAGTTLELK ?
*A* 0.000396
